Known Ki of a selection of compounds
TARGET UNDER TEST: D(2) dopamine receptor (Rattus norvegicus)
Sequence (P61169 whole entry): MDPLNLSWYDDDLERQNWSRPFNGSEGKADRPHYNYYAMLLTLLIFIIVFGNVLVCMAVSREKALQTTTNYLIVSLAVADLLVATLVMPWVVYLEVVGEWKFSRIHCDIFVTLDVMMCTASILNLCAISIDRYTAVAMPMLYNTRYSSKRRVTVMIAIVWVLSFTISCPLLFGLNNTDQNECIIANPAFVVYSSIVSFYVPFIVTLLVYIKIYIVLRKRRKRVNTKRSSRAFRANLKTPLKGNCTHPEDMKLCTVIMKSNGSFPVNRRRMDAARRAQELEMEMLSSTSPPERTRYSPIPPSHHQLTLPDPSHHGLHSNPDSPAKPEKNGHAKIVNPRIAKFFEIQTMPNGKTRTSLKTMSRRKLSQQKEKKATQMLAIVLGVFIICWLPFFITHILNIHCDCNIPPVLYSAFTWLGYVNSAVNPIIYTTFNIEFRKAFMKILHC
METHOD DESCRIPTION: Displacement of [3H]nemonapride from dopamine D2 receptor in rat forebrain
Numbers only here, please. The scale is nM.

Example results:
INSERT INTO results (compound_string, target_under_test, measured_number) VALUES
  ('CCCCC(=O)Oc1cccc2c1-c1cc(OC)cc3c1[C@@H](C2)N(C)CC3', 'D(2) dopamine receptor (Rattus norvegicus)', 192),
  ('CCCN1CCc2cc(OC)cc3c2[C@H]1Cc1cccc(OC(C)=O)c1-3', 'D(2) dopamine receptor (Rattus norvegicus)', 18.9),
  ('CCCCC(=O)Oc1cccc2c1-c1cc(OC)cc3c1[C@@H](C2)N(CCC)CC3', 'D(2) dopamine receptor (Rattus norvegicus)', 89);

Attention now turns to another entry.
Ki reading for `COc1cc2c3c(c1)-c1c(cccc1OC(C)=O)C[C@H]3N(C)CC2` : 165
